// each record: one item and its Kd for CDK9 (Homo sapiens)

>  <sample smiles>
CC1(C)[C@H](NC(=O)c2cnc(N3CCC(OCCCN4CCN(CCCNS(=O)(=O)c5ccc(Nc6ncc(Br)c(Nc7cccc(F)c7C(N)=O)n6)cc5)CC4)CC3)nc2)C(C)(C)[C@H]1Oc1ccc(C#N)c(Cl)c1

>  <target entity>
CDK9 (Homo sapiens)
Sequence (P50750 whole entry): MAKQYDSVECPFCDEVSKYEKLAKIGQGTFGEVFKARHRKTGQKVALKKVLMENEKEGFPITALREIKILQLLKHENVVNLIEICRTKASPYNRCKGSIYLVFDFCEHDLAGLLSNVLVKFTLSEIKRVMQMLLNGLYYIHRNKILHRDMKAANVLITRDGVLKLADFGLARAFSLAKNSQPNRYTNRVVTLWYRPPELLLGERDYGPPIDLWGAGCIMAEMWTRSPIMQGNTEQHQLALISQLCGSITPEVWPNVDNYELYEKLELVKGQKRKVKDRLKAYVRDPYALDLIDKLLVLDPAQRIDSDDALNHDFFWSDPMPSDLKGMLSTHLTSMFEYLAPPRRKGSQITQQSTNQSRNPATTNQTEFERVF

>  <Kd>
> 2500 nM

$$$$

Next up:
Query: Consider the compound shown here: CCc1cnn2c(NCc3ccc(COCCN4CCN(CC5CCN(c6ncc(C(=O)N[C@H]7C(C)(C)[C@H](Oc8ccc(C#N)c(Cl)c8)C7(C)C)cn6)CC5)CC4)nc3)cc(N3CCCC[C@H]3CCO)nc12 What is its recorded Kd?
Response: < 50 nM
